# Assay system: BRD4(BD1) (Homo sapiens)
# Construct: a BRD4(BD1) synthetic gene that includes a TEV cleavage site was purchased from LifeTechnology; made in house
# Assay remarks: HTRF assay, disruption of bromodomain/histone peptide interaction
# Assay type: binding
# Setup conditions: HTRF; mean ± SD of three experiments; Table 2; read-out: IC50 μM, effect on BRD4(BD1) activity
Attribute: log10 of IC50
Values are log10 of IC50 in µM.

{"Compound": "CCCCc1c(C)nc2nc(SCc3nc4c(c(=O)[nH]c(=O)n4Cc4ccc(Cl)cc4)n3CC)nn2c1C [Compound 27b]", "Data value": 1.31}

Record request: log10 of IC50 value, item CCn1c(CSc2nc[nH]n2)nc2c1c(=O)[nH]c(=O)n2Cc1ccc(Cl)cc1 [Compound 21a]
1.66

Record request: log10 of IC50 value, item CCCCn1c(NC(=O)OC(C)(C)C)nc(=O)c2c1ncn2CC [Compound 7c]
1.25

Record request: log10 of IC50 value, item CCn1c(CSc2nc3nc(C)cc(C)n3n2)nc2c1c(=O)[nH]c(=O)n2Cc1ccc(Cl)cc1 [Compound 25a]
1.10
